Kd reference
molecular target: cynomolgus Siglec-2/CD22 (Macaca fascicularis, UniProt A0A2K5WCZ6); experiment: biochemical; details: SPR, steady-state analysis; read-out: Affinity cyno CD22
Sequence (A0A2K5WCZ6 entry or part of it): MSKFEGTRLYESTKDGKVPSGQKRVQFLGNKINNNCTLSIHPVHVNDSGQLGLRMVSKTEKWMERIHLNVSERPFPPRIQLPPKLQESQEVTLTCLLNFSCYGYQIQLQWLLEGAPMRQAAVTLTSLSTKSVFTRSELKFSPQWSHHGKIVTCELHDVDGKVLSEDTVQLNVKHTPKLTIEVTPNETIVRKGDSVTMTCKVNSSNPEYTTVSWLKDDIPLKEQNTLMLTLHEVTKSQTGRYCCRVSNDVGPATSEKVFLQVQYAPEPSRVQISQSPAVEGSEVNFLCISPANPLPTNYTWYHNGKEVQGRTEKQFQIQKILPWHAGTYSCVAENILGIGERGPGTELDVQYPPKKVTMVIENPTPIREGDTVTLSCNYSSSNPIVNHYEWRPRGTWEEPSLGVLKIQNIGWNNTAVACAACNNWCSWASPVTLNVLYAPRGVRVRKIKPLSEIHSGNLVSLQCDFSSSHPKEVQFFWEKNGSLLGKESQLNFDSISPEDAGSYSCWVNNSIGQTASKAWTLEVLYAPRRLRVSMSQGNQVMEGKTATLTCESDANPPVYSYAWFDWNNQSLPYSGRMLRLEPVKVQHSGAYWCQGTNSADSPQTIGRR

Example molecules with recorded Kd:
O=C(O)CCCO[C@]1(C(=O)O)C[C@H](O)[C@@H](NC(=O)CO)[C@H]([C@H](O)[C@H](O)CNC(=O)Cc2ccc(Cl)cc2)O1	1000 to 10000 nM
C#CCOc1ccc(CO[C@]2(C(=O)O)C[C@H](O)[C@@H](NC(=O)CO)[C@H]([C@H](O)[C@H](O)CNC(=O)Cc3ccc(-c4ccc(O)cc4)cc3OC)O2)cc1	1000 to 10000 nM
C#CCOCCOCCO[C@]1(C(=O)O)C[C@H](O)[C@@H](NC(=O)CO)[C@H]([C@H](O)[C@H](O)CNC(=O)c2cccc(Oc3ccc(O)cc3)c2)O1	1000 to 10000 nM
CC(=O)NCCOCCOCCOCCOCCC(=O)NCCCCCCO[C@]1(C(=O)O)C[C@H](O)[C@@H](NC(=O)CO)[C@H]([C@H](O)[C@H](O)CNC(=O)Cc2ccc(C(F)F)cc2)O1	< 1000 nM

Okay, next one:
*Q* Please report the recorded Kd for C#CCCOc1ccc(CO[C@]2(C(=O)O)C[C@H](O)[C@@H](NC(=O)CO)[C@H]([C@H](O)[C@H](O)CNC(=O)Cc3cccc(NC(C)=O)c3)O2)cc1 .
*A* 1000 to 10000 nM
